# Measured on: Receptor tyrosine-protein kinase erbB-2 (Homo sapiens)
# Test description: reducers of endogenous Her2 protein level, primary screen, SKBR3 breast tumor cells, AlphaScreen, ATP viability (AID 461);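 for Her2 level: lower value means less Her2 protein in the cells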;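 for viability: percent of carrier control wells set as 100% viability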
# Test parameters: 18-24 h, at 10 µM, stronger effect = lower value

Compound	Unit annotation	Her2 level
CC1(C)CNC(=O)CC(C)(C)N1O	%	129
CC(C)(C)n1ncc2c(=O)n(CC(=O)NCCc3ccccc3)cnc21	%	108
C=C(C)Cn1c(N2CCN(CC)CC2)nc2c1c(=O)[nH]c(=O)n2C	%	99.5
CC(C)(C)OC(=O)N1CC(O)CC1C(=O)OCC(=O)c1ccc(Cl)cc1 (stereo unspecified)	%	91
CC(C)(C)c1ccc(C(=O)Nc2cnccn2)cc1	%	114
Nc1nc(CN2CCN(Cc3ccc4c(c3)OCO4)CC2)nc(Nc2ccccc2)n1	%	92.5

----------
Examples of molecules with documented inhibition follow.
# Test description: growth suppression of yeast trafficking mutant, preliminary HTS, modulators of trafficking downstream of Golgi apparatus project, 1536-format plate, OD 615 nm (AID 637)
# Test parameters: yeast transport mutant growth, absorbance 615 nm, 18 h; stronger effect = higher value
Quantity: inhibition (%)

Molecule	Quantity	Assay result
CCSc1nnc(NC(=O)c2ccc(C)o2)s1	inhibition	-5.32
Cc1ccc(C)c(-n2c(CNC(=O)c3ccco3)nnc2SCC(=O)Nc2nnc(C)s2)c1	inhibition	3.5
CCCCC(=O)NCCNc1nc2c(c(=O)n(C)c(=O)n2C)n1Cc1ccccc1	inhibition	2.06
Cc1cc(=O)n(C)c(=O)n1CCCCCN1CCCC1	inhibition	0.48
CN(C)CCCN1C(=O)c2oc3ccccc3c(=O)c2C1c1cccs1 (stereo unspecified)	inhibition	1.67
Cc1cc(NS(=O)(=O)c2ccc(Nc3nc(-c4sc(N)nc4C)cs3)cc2)no1	inhibition	-4

----------
Examples of compounds with documented viability follow.
# Test description: reversal of MRP1-mediated doxorubicin resistance, pilot screen, H69AR cells, doxorubicin co-treatment (AID 601)
# Test parameters: H69AR cells, CellTiter-Glo, 72 h; compound alone cytotoxicity; at 10 µM

Compound	viability
c1ccc2c(c1)sc1nnnn12	86.6%
COc1ccc(-c2noc(COc3ccc4ccccc4c3Br)n2)cc1OC	80.8%
CCCCCC1CC(CC(C)C(=O)Nc2nncs2)C(=O)O1 (stereo not given)	93.3%
O=C(C1CCCCC1)N1CCC(c2nc3c(nnn3Cc3c(F)cccc3Cl)c(=O)[nH]2)CC1	71.3%
COc1cccc(NC(=O)CSc2nnc(-c3cccs3)n2C)c1	97.5%
CC1=C(c2ccc(Cl)cc2)[N+](=O)C(C)(C)N1[O-]	89.6%
O=C(O)c1c[nH]c2ccc(S(=O)(=O)N3CCN(c4ccc(F)cc4)CC3)cc2c1=O	93.7%
COc1ccccc1-c1cc(C(=O)NCCCn2ccnc2)no1	97.4%
COc1ccc(C)cc1NC(=O)CN(Cc1nnc(-c2ccc(Cl)cc2)o1)C1CCCC1	4.7%
CC1(C)CC(CCNC(=O)c2ccco2)CC(C)(C)N1	98.8%
Cc1cc(C(=O)NCCN2CCN(c3cccc(Cl)c3)CC2)n(-c2ccccc2)n1	23.7%
COCCNC(=O)C(c1ccc(C)o1)N(Cc1ccc(F)cc1)C(=O)Cn1nnc2ccccc21 (stereo not given)	97.8%
COc1ccc2nc(NC(=O)C3CCCN(S(=O)(=O)c4cccc5nsnc45)C3)sc2c1 (stereo not given)	83.1%
O=c1c2c(-c3ccccc3)csc2nc2n1CCC2	79.4%
CCOC(=O)N1CCN(c2c(NCCN(C)Cc3ccccc3)c(=O)c2=O)CC1	99%
COc1ccc(OCc2cccc(C(=O)O)c2)cc1	88.1%
CC(=O)c1ccc(NC(=O)c2noc3c2CCCCC3)cc1	98%
CCOc1ccccc1NC(=O)CCN1CCN(S(=O)(=O)c2ccc(Br)cc2)CC1	86.9%
CN=C1CC(C)(C)CC(=O)/C1=C(/O)CCC(=O)NC	102%
N#Cc1cn(CC(=O)N2CCCC2)c2ccccc12	93.6%
Cc1nc2ccc(N3C(=O)CCC3=O)cc2[nH]1	103%
CCOC(=O)C1=C(C)Nc2ncnn2C1c1ccccc1F (stereo not given)	95.6%
Fc1ccccc1C(c1nnnn1Cc1ccc2c(c1)OCO2)N1CCN(Cc2ccccc2)CC1 (stereo not given)	89.3%
O=C(OCc1nnc(-c2ccccc2)o1)c1ccc2ccccc2n1	89.4%
O=C(OCN1C(=O)c2ccccc2C1=O)c1ccc2c(=O)n3c(nc2c1)CCC3	96.7%
COc1cc(OC)c(-c2nn3c(C4CCCCC4)nnc3s2)cc1OC	77.5%
O=C(Nc1ccccc1-c1ccccc1)NC1CCN(CC(=O)N2CCOCC2)CC1	99.3%
COc1ccc(CC(NC(C)=O)C(=O)N2CCN(C(=O)N(C(C)C)C(C)C)CC2)cc1 (stereo not given)	94.2%
CCN1CCCC1CNC(=O)CS(=O)(=O)Cc1nc(-c2ccccc2C)oc1C (stereo not given)	88.1%
COC(=O)c1ccc(CSc2nnc(-c3ccncc3)o2)o1	100%
CC(NS(=O)(=O)c1ccc(F)cc1)C(c1cccs1)N1CCN(C)CC1 (stereo not given)	96.7%
O=C1N(c2ccccc2)C2CS(=O)(=O)CC2N1c1ccc(Br)cc1 (stereo not given)	101%
COc1ccc(C2=NO[C@@H]3C(=O)N(c4cccc(C)c4C)C(=O)[C@H]23)cc1OC	91.5%
CCC(C(=O)OCC(=O)Nc1c(C)n(C)n(-c2ccccc2)c1=O)c1ccccc1 (stereo not given)	87.7%
COc1ccc(OC)c(S(=O)(=O)N2CCC(C(=O)NCC3CCCO3)CC2)c1 (stereo not given)	98.9%
O=C1NC2=C(C(=O)CCC2)C(c2ccc3ncccc3c2)N1 (stereo not given)	98.4%
COC(=O)c1ccc(-c2ccc(CNCC(O)c3ccccc3)o2)cc1 (stereo not given)	101%
N#CC1=C(N)SC(N)=C(C#N)C1CCc1ccccc1	23.3%
COc1cc(C2CC(=O)NC3=C2C(=O)CC(C)(C)C3)ccc1O (stereo not given)	109%
O=C1CCCC2=C1C1(CCCC1)N=C(Nc1nc3ccccc3s1)N2	79.5%
O=C1CCC(=O)N1OCCCCOc1ccccc1	96.2%
O=C(NCC1COc2ccccc2O1)c1ccccc1 (stereo not given)	92.9%
CCOC(=O)c1cccc(NC(=O)Cn2cnc3c2c(=O)n(C)c(=O)n3C)c1	91.2%
O=C(OCc1ccccc1F)c1ccc2c(c1)OCCO2	92%
Cc1noc(C)c1COc1cccc(C(=O)Nc2ccc(C#N)cc2)c1	68.9%

----------
Examples of compounds with documented viability follow.
# Test description: reducers of endogenous Her2 protein level, primary screen, SKBR3 breast tumor cells, AlphaScreen, ATP viability (AID 461);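 for viability: percent of carrier control wells set as 100% viability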
# Test parameters: 18-24 h, measured here: SKBR3 viability, ATP luminescence, at 10 µM

Compound	viability / %
Cn1c2c(c(=O)n(C)c1=O)C(CC(=O)Nc1ccccc1)C(=O)N2 (configuration not stated)	106
CCCCc1ccc(NC(=O)c2c(C)noc2C)cc1	105
COc1ccccc1OCC(=O)Nc1ccc(S(=O)(=O)Nc2nc(C)cc(C)n2)cc1	90.5
CCc1nnc(NC(=O)c2cc3c(s2)CCCCC3)s1	92.5
C=CCN1C(=O)C2(c3ccccc31)C1CCCC=C1C(C#N)=C(N)C2(C#N)C#N (configuration not stated)	81
CC(=O)Nc1ccc(S(=O)(=O)N2CCN=C2C)cc1	92.5
CS(=O)(=O)NCc1ccc(C(=O)NCc2ccccc2)cc1	101
Cc1cc(C)c(C#N)c(SCc2[nH]nc3c2C(c2ccccc2)C(C#N)=C(N)O3)n1 (configuration not stated)	93
C=CCOC(=O)C(C#N)c1nc2ccccc2nc1N1CCN(Cc2ccccc2)CC1 (configuration not stated)	94
CCCCOC(=O)CNc1nnc(SCC(=O)OCC)[nH]c1=O	114
COc1ccc(Cl)cc1NC(=O)c1oc(C)nc1C	91
CS(=O)(=O)N(Cc1nc2sc3c(c2c(=O)[nH]1)CCCC3)C1CCCCC1	91
COc1ccc2nc(N3CCC(C)CC3)c(C#N)cc2c1	108
COc1ccc(-n2c(=O)c3c4c(sc3n3c(C)nnc23)CCCC4)cc1	78.5
CCOC(=O)c1[nH]c2ccc(OC)cc2c1NC(=O)CCN1CCC(C)CC1	101
COc1ccccc1N1CCN(C(=O)C2CCCO2)CC1 (configuration not stated)	98.5
CCC(=O)N1CCN(CCN=CC2=C(O)CC(C)(C)CC2=O)CC1	90.5
Cc1ccc(S(=O)(=O)N2CCCC(C(=O)NC3=NCCS3)C2)cc1 (configuration not stated)	97.5
CC1CCCCC1NC(=O)CCCc1nc2ccccc2c(=O)[nH]1 (configuration not stated)	80.5
Cc1c(C#N)sc2nc(-c3ccccc3)nc(N3CCCC3)c12	85.5
Cc1nnc(SCC(=O)N(C(C)C)C(C)C)nc1C	75.5
COCCN1C(=O)C(=O)/C(=C(/O)c2ccc(OC(C)C)cc2)C1c1cccnc1 (configuration not stated)	94.5
Clc1ccc(Cl)c(-c2ccc(/C=N/c3ncn[nH]3)o2)c1	105
CCOc1ccc(N2CC(C(=O)Nc3cccc(C)c3C)CC2=O)cc1 (configuration not stated)	118
COc1ccc(Oc2c(C)oc3cc(OC(=O)N4CCOCC4)ccc3c2=O)cc1	91
Cc1ccccc1NC(=O)C1CC(=O)N(c2ccccc2F)C1 (configuration not stated)	91.5
O=S(=O)(c1cccc2nsnc12)N1CCN(c2ncccn2)CC1	87
COc1ccc2nc(NC(=O)C(NS(=O)(=O)c3cccs3)C(C)C)sc2c1 (configuration not stated)	90.5
O=C(CN1CCCC1)Nc1ccc(NC(=O)Nc2ccccc2)cc1	92.5
CCc1nccn1S(=O)(=O)c1ccc(C)c(C)c1	119
CCC(C)c1ccc(NC(=O)c2cccnc2)cc1 (configuration not stated)	93
O=C(CSc1nnc(-c2cccnc2)o1)Nc1ccccn1	92.5
O=S(=O)(c1cc(Cl)ccc1Br)N1CCOCC1	95.5
c1ccc(CCc2nc(-c3cccnc3)no2)cc1	86.5
CC(=O)N1CCc2cc(Br)cc(S(=O)(=O)NCCCN3CCCC(C)C3)c21 (configuration not stated)	83
CCCCn1nnnc1SCC(=O)Nc1cccc(C)n1	108
CCOC(=O)c1cc2sccc2n1CC(=O)Nc1ccc(OC)cc1OC	90
O=C(O)C1CCCCC1C(=O)NCCc1ccccc1 (configuration not stated)	87.5
O=C(Cn1ccc2ccccc2c1=O)Nc1ccc2c(c1)OCO2	104
CC1CCN(C(=O)Cn2c(=O)oc3ccccc32)CC1	86.5
CCCc1c(O)nc(SCC(=O)NCCc2ccc(OC)c(OC)c2)[nH]c1=O	95
CCOc1cc(C)c(Cl)cc1S(=O)(=O)N(C)C	106
CCn1c(COc2cccc3ccccc23)nnc1SCC(N)=O	96
CN(C(=O)c1cc2sccc2n1C)C1CCCCC1	91
CN(C)c1ccc(NC(=O)CSCc2nc3c(nnn3Cc3ccc(F)cc3)c(=O)[nH]2)cc1	89.5
Cc1ccc(-n2nnnc2SCC(=O)c2cc(C)n(CC3CCCO3)c2C)cc1 (configuration not stated)	83.5
O=C(O)C1C2C=CC(O2)C1C(=O)NCc1ccc(Cl)cc1 (configuration not stated)	107
